- Tgt: MAPK1 (human)
- Experiment Summary: radiometric filter-binding kinase assay, Kinase HotSpot
- Details: compound 0.5 µM; ATP 10 µM
Parameter residual activity: see the listing below.
Answer format: numeric, % implied, no suffix.

[[record]]
structure = "CNc1cc2c(Nc3cccc(Br)c3)ncnc2cn1"
measured_value = 88.6

[[record]]
structure = "CCN(CC)CCNC(=O)c1c(C)[nH]c(/C=C2\\C(=O)Nc3ccc(F)cc32)c1C"
measured_value = 98.5

[[record]]
structure = "COc1ccc2c(c[n+](C)c3c4cc5c(cc4ccc23)OCO5)c1OC"
measured_value = 101


Please give measured residual activity of the following entry: CNC(=O)c1cc(Oc2ccc(NC(=O)Nc3ccc(Cl)c(C(F)(F)F)c3)cc2)ccn1 101

Look up and state reported residual activity for O=c1cc(N2CCOCC2)oc2c1ccc1ccccc12 104

Input O=C1NC(=O)C(c2cn(CCCn3ccnc3)c3ccccc23)=C1Nc1ccccc1 , output reported residual activity. 94.8

Tell us which residual activity value is on record for O=C(Nc1cccc(Nc2nccc(Nc3cccc(C(F)(F)F)c3)n2)c1)C1CC1 89

Item Nc1cccc(-c2cc3c(Oc4cccc(O)c4)ncnc3[nH]2)c1 : provide residual activity 114

Provide measured residual activity value, entry: c1ccc(-c2n[nH]c3c2oc2ccccc23)cc1 118

For the compound CCC(=O)Nc1ccc2ncnc(Nc3cccc(Br)c3)c2c1 , give its measured residual activity value. 77.7

Identify residual activity associated with the compound Nc1ncnc2c1c(-c1ccc(Oc3ccccc3)cc1)cn2C1CCCC1 80.7

====

- Tgt: STK24 (human) (UniProt Q9Y6E0)
- Sequence (Q9Y6E0 whole entry, looked up): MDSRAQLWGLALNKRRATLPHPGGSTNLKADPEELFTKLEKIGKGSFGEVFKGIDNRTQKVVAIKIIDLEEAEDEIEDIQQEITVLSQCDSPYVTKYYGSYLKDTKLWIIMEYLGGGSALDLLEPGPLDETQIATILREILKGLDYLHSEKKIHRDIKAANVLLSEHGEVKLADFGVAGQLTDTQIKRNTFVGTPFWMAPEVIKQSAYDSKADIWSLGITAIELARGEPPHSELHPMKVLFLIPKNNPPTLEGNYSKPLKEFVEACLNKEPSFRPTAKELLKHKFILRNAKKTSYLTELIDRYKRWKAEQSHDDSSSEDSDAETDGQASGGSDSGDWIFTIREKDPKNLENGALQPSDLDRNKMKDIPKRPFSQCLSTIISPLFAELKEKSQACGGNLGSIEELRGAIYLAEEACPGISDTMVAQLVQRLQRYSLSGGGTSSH
- Experiment Summary: radiometric filter-binding kinase assay, Kinase HotSpot
- Details: compound 0.5 µM; ATP 10 µM
Property Label: residual activity (%)
Answer with a number only, understood to be in %.

Example cases with answers are listed next.
[[record]]
structure = "CC(=O)c1ccc(N2CCOCC2)cc1O"
tgt = "STK24 (human) (UniProt Q9Y6E0)"
property_label = "residual activity"
measured_value = 99

[[record]]
structure = "Nc1ccc2ncnc(NCCc3ccc(Oc4ccccc4)cc3)c2c1"
tgt = "STK24 (human) (UniProt Q9Y6E0)"
property_label = "residual activity"
measured_value = 107

[[record]]
structure = "O=c1cc(N2CCOCC2)oc2c1ccc1ccccc12"
tgt = "STK24 (human) (UniProt Q9Y6E0)"
property_label = "residual activity"
measured_value = 103


# return recorded residual activity for input N#CC(C#N)=C(N)/C(C#N)=C/c1ccc(O)cc1 103

Please give measured residual activity of the following entry: O=S(=O)(c1cccc2cnccc12)N1CCCNCC1 70.2

Recall and state the measured residual activity for CCC(=O)Nc1ccc2ncnc(Nc3cccc(Br)c3)c2c1 . 102

====

- Tgt: UniProt Q92630
- Sequence (Q92630 whole entry, looked up): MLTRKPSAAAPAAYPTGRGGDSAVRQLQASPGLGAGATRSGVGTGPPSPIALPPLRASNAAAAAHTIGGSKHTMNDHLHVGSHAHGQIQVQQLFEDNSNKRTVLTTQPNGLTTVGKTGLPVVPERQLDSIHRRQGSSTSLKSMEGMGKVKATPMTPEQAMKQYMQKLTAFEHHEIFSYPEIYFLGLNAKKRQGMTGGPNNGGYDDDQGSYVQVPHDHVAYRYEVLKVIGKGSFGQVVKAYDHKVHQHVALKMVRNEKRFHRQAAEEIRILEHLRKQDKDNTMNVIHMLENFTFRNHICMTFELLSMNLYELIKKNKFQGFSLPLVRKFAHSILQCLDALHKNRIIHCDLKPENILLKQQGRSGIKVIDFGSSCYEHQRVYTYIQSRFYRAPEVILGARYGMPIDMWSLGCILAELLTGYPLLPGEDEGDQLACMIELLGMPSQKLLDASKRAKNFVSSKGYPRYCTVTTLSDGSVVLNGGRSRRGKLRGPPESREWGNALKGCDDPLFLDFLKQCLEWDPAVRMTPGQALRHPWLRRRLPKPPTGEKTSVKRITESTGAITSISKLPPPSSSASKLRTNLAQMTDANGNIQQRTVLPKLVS
- Experiment Summary: radiometric filter-binding kinase assay, Kinase HotSpot
- Details: compound 0.5 µM; ATP 10 µM
Property Label: residual activity (%)
Hi! Could you send only the number? It should be in %, unit omitted.

[[record]]
structure = "Cc1ccc(S(=O)(=O)/C=C/C#N)cc1"
measured_value = 102


Identify the reported residual activity for the following entry. CNC(=O)c1cc(Oc2ccc(NC(=O)Nc3ccc(Cl)c(C(F)(F)F)c3)cc2)ccn1 98.9

Hello, please tell me recorded residual activity for this one: N#C/C(=C(/N)Sc1ccc(N)cc1)c1ccccc1C(F)(F)F 96.6

Report measured residual activity; entry is Oc1cccc(-c2nc(N3CCOCC3)c3oc4ncccc4c3n2)c1 97.6

====

Readings of residual activity for the listed molecules
- Tgt: FYN (human)
- Experiment Summary: radiometric filter-binding kinase assay, Kinase HotSpot
- Details: compound 0.5 µM; ATP 10 µM
Express the result in % but write the number alone.

[[record]]
structure = "COc1cc2ncnc(Nc3cccc(Cl)c3)c2cc1OC"
property_label = "residual activity"
measured_value = 85.7

[[record]]
structure = "c1ccc(-c2n[nH]cc2-c2ccnc3ccccc23)nc1"
property_label = "residual activity"
measured_value = 110

[[record]]
structure = "CC(=O)c1ccc(N2CCOCC2)cc1O"
property_label = "residual activity"
measured_value = 103


Continue with the molecule presented below.
Please report residual activity with FYN (human) for item CCOC(=O)c1c(C)[nH]c(/C=C2\C(=O)Nc3ccccc32)c1C . 97.3

====

- Tgt: STK10 (human)
- Experiment Summary: radiometric filter-binding kinase assay, Kinase HotSpot
- Details: compound 0.5 µM; ATP 10 µM
Quick rule for you: residual activity at 70% or higher means t, lower means f.

Worked examples follow.
[[record]]
structure = "CC(C)N(CCC(=O)c1ccc2ccccc2c1)Cc1ccccc1"
category = "t"

[[record]]
structure = "CNc1cc2c(Nc3cccc(Br)c3)ncnc2cn1"
category = "f"

[[record]]
structure = "c1ccc(-c2n[nH]c3c2oc2ccccc23)cc1"
category = "t"

[[record]]
structure = "Cc1ccc(S(=O)(=O)/C=C/C#N)cc1"
category = "t"

[[record]]
structure = "CCN(CC)CCNC(=O)c1c(C)[nH]c(/C=C2\\C(=O)Nc3ccc(Cl)cc32)c1C"
category = "f"


Test whether the molecule COc1cc2ncnc(Nc3cccc(Cl)c3)c2cc1OC records residual activity of 70% or higher. f

State whether the measured residual activity reaches 70%, counting equality as reaching it, for CCN(CC)CCNC(=O)c1c(C)[nH]c(/C=C2\C(=O)Nc3ccc(F)cc32)c1C f

Can CC#CC(=O)Nc1cc2c(Nc3ccc(F)c(Cl)c3)ncnc2cn1 be said to have residual activity at or above 70%? t

Determine whether this molecule has residual activity no lower than 70%: CNC(=O)c1cc(Oc2ccc(NC(=O)Nc3ccc(Cl)c(C(F)(F)F)c3)cc2)ccn1 t

Does O=C1NC(=O)/C(=C/c2ccc3c(c2)OC(F)(F)O3)S1 have a reported residual activity of at least 70%? t

====

- Tgt: EPHA5 (human) (UniProt P54756)
- Sequence (P54756 whole entry, looked up): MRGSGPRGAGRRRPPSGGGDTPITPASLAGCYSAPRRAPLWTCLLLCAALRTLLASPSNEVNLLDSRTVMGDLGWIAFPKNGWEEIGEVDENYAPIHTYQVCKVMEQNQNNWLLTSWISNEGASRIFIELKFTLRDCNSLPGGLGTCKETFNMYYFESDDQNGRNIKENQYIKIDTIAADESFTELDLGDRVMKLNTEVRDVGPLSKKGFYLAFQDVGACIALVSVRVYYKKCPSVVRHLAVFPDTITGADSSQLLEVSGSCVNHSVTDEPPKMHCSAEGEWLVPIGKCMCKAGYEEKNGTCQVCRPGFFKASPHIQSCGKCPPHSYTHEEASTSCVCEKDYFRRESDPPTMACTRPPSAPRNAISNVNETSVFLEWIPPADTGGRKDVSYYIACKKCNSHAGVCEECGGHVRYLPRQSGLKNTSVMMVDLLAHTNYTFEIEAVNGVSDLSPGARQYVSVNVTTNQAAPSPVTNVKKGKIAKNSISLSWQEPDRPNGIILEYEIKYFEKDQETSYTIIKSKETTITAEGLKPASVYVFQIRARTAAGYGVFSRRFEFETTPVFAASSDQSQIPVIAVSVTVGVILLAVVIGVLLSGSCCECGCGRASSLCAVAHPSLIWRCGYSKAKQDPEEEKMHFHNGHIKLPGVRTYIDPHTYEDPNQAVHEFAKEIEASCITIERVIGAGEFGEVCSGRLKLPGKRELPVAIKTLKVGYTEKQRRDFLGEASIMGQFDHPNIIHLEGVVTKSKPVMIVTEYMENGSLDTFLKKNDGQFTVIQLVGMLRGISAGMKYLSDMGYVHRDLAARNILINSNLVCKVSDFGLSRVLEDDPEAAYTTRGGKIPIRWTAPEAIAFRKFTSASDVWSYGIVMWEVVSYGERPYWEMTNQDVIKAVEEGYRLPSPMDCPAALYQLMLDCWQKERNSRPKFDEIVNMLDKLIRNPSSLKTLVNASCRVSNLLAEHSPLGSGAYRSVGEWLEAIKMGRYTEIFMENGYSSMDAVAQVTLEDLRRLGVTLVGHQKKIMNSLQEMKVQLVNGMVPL
- Experiment Summary: radiometric filter-binding kinase assay, Kinase HotSpot
- Details: compound 0.5 µM; ATP 10 µM
A collection of molecules and their measured residual activity
Write the value in % as a bare number.

Worked cases, residual activity given:
[[record]]
structure = "O=C1NC(=O)c2c1c1c3ccccc3n3c1c1c2c2ccccc2n1C1CCC3O1"
u = "%"
measured_value = 78.7

[[record]]
structure = "CCCC(=O)Oc1ccc2[nH]c(C(=O)c3cc4ccccc4[nH]3)cc2c1"
u = "%"
measured_value = 97.7

[[record]]
structure = "COc1ccc(COc2ccc(Cc3cnc(N)nc3N)cc2OC)cc1"
u = "%"
measured_value = 111

[[record]]
structure = "c1ccc(-c2n[nH]cc2-c2ccnc3ccccc23)nc1"
u = "%"
measured_value = 94.9

[[record]]
structure = "Cc1ccc(S(=O)(=O)/C=C/C#N)cc1"
u = "%"
measured_value = 111


// Input: O=C(Nc1cccc(Nc2nccc(Nc3cccc(C(F)(F)F)c3)n2)c1)C1CC1 . Output its residual activity only. 96.2

====

- Tgt: DDR2 (human) (UniProt Q16832)
- Sequence (Q16832 whole entry, looked up): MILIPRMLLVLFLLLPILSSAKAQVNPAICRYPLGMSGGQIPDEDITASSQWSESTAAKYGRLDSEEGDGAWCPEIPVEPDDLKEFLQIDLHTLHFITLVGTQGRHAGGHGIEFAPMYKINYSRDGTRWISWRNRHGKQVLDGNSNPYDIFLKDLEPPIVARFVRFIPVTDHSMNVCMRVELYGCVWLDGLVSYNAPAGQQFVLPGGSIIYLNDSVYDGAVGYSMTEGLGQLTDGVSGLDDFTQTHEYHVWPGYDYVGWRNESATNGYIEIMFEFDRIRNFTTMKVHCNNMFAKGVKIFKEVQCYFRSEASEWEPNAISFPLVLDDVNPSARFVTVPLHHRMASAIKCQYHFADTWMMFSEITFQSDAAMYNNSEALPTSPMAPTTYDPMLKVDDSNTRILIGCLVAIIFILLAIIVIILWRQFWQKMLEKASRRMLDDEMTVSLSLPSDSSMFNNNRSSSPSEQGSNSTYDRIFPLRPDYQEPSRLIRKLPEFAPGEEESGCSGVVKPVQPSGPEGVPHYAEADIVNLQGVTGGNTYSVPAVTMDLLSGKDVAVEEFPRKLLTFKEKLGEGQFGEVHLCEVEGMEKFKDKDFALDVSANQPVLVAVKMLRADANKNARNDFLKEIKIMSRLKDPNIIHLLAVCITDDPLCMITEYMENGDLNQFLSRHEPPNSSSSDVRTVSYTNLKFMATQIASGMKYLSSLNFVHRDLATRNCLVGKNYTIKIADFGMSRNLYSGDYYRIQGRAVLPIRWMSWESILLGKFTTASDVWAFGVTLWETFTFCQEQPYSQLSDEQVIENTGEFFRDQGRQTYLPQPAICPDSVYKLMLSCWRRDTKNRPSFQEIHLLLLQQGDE
- Experiment Summary: radiometric filter-binding kinase assay, Kinase HotSpot
- Details: compound 0.5 µM; ATP 10 µM
Below, each of the compounds is paired with its reported residual activity value.
Supply the numeric figure in %, leaving out any unit text.

The cases that follow already have their residual activity on record.
[[record]]
compound = "O=C1NC(=O)c2c1c1c3ccccc3n3c1c1c2c2ccccc2n1C1CCC3O1"
property_label = "residual activity"
measured_value = 80.1

[[record]]
compound = "CCN(CC)CCNC(=O)c1c(C)[nH]c(/C=C2\\C(=O)Nc3ccc(F)cc32)c1C"
property_label = "residual activity"
measured_value = 154

[[record]]
compound = "Cc1ccc(Nc2nccc(N(C)c3ccc4c(C)n(C)nc4c3)n2)cc1S(N)(=O)=O"
property_label = "residual activity"
measured_value = 36.2

[[record]]
compound = "O=S(=O)(c1cccc2cnccc12)N1CCCNCC1"
property_label = "residual activity"
measured_value = 92.2

[[record]]
compound = "Nc1ncnc2c1c(-c1ccc(Oc3ccccc3)cc1)cn2C1CCCC1"
property_label = "residual activity"
measured_value = 95

[[record]]
compound = "CC[n+]1c(/C=C/N(C)c2ccccc2)n(-c2ccccc2)c2ccc(-c3nc4ccccc4s3)cc21"
property_label = "residual activity"
measured_value = 97.4

[[record]]
compound = "CC#CC(=O)Nc1cc2c(Nc3ccc(F)c(Cl)c3)ncnc2cn1"
property_label = "residual activity"
measured_value = 108

[[record]]
compound = "Cc1ccc(NC2=CC(=O)c3sc(C)nc3C2=O)cc1"
property_label = "residual activity"
measured_value = 95.6


Provide residual activity value for the following compound: CCC(=O)Nc1ccc2ncnc(Nc3cccc(Br)c3)c2c1 109

Give residual activity for the following compound: N#CC(C#N)=C(N)/C(C#N)=C/c1ccc(O)cc1 97.6

====

# residual activity values compiled below
- Tgt: CDK6 CCND1 (human) (UniProt Q00534+P24385)
- Sequence (P24385 whole entry, looked up): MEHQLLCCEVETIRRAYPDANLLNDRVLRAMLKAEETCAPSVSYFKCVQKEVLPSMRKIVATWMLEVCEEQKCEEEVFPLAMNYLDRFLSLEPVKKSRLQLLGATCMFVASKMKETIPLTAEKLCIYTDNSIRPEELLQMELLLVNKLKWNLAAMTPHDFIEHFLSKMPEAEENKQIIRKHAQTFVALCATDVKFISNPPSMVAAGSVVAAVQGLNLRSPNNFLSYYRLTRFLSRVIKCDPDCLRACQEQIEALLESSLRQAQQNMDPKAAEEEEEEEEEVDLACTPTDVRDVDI
- Sequence (Q00534 whole entry, looked up): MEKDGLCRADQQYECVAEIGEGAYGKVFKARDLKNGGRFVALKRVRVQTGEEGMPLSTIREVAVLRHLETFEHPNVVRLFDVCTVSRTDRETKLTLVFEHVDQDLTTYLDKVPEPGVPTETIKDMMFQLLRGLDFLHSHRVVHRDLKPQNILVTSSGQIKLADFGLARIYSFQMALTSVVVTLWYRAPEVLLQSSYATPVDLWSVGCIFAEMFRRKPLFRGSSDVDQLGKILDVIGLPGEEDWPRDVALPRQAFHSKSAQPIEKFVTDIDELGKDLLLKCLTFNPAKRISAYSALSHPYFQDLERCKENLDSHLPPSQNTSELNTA
- Experiment Summary: radiometric filter-binding kinase assay, Kinase HotSpot
- Details: compound 0.5 µM; ATP 10 µM
Please give a number only; it is taken to be in %.

Please look at O=C1NC(=O)C(c2cn(CCCn3ccnc3)c3ccccc23)=C1Nc1ccccc1 and tell me its recorded residual activity on CDK6 CCND1 (human) (UniProt Q00534+P24385). 83.1
